Test: Inhibition of NS5A in Hepatitis C virus subtype 2a replicon infected in human HuH7 cells assessed as reduction in viral replication
Reported metric: EC50 (nM)
Numbers only, in nM.

Problem: Which EC50 is reported for this molecule? COC1CCN(C(=O)Nc2ccc(-c3ccc(-c4c[nH]c([C@@H]5CCCN5C(=O)[C@H](NC(=O)N5CC[C@@H](NC(=O)OCc6ccccc6)C5)c5ccccc5)n4)cc3)cc2)CC1
Result: 0.018

====

Test: Inhibition of NS5A in Hepatitis C virus subtype 1b replicon infected in human HuH7 cells assessed as reduction in viral replication
Threshold 0.04 nM. EC50 below it: met. EC50 at it or above: not met.

Take a look at these entries with their results.
INSERT INTO assay_data (compound, group_label) VALUES
  ('COC1CCN(C(=O)Nc2ccc(-c3ccc(-c4c[nH]c([C@@H]5CCCN5C(=O)[C@H](NC(=O)N5CC[C@@H](NC(=O)OCc6ccccc6)C5)c5ccccc5)n4)cc3)cc2)CC1', 'met'),
  ('COC1CCC(C(=O)Nc2ccc(-c3ccc(-c4c[nH]c([C@@H]5CCCN5C(=O)[C@H](NC(=O)CCCNC(=O)OCc5ccccc5)c5ccccc5)n4)cc3)cc2)CC1 (stereo not given in full)', 'met'),
  ('COC(=O)N[C@@H](C(=O)N1CCC[C@H]1c1ncc[nH]1)c1ccccc1', 'not met'),
  ('CCCC(=O)Nc1ccc(-c2ccc(-c3c[nH]c([C@@H]4CCCN4C(=O)[C@H](NC(=O)CCCNC(=O)OCc4ccccc4)c4ccccc4)n3)cc2)cc1', 'not met'),
  ('CCCC(=O)Nc1ccc(-c2ccc(-c3c[nH]c([C@@H]4CCCN4C(=O)[C@H](NC(=O)N4CC[C@@H](NC(=O)OC)C4)c4ccccc4)n3)cc2)cc1', 'not met'),
  ('O=C(CCCNC(=O)OCc1ccccc1)N[C@@H](C(=O)N1CCC[C@H]1c1nc(-c2ccc(-c3ccc(NC(=O)c4ccccc4)cc3)cc2)c[nH]1)c1ccccc1', 'met');

Problem: Lab note: confirm whether the reported EC50 for this compound is below 0.04 nM, equality not counting. compound: CCCC(=O)Nc1ccc(-c2ccc(-c3c[nH]c([C@@H]4CCCN4C(=O)[C@H](NC(=O)N4CCC[C@@H](NC(=O)OCc5ccccc5)C4)c4ccccc4)n3)cc2)cc1
Result: met

Problem: How about COC(=O)N[C@@H](C(=O)N1CCC[C@H]1c1ncc(-c2ccc(-c3ccc(-c4cnc([C@@H]5CCCN5C(=O)[C@H](NC(=O)OC)c5ccccc5)[nH]4)cc3)cc2)[nH]1)c1ccccc1 ?
Result: met
